Values were extracted from patent US9365566B2.

# system.under.test: UniProtKB Q06187
observable: IC50
Please state the value followed by its unit.

Worked examples follow.
INSERT INTO measurements (compound, system_under_test, observable, result) VALUES
  ('NC(=O)c1nnc2c(-c3cc4[nH]ncc4cc3Cl)cccc2c1N [Example 105]', 'UniProtKB Q06187', 'IC50', '15.8 nM'),
  ('CCn1cnc2ccc(-c3c(C)ccc4c(N)c(C(N)=O)nnc34)cc21 [Example 131]', 'UniProtKB Q06187', 'IC50', '100 nM'),
  ('Cc1cc(F)c2c(N)c(C(N)=O)nnc2c1-c1ccc2[nH]ncc2c1 [Example 60]', 'UniProtKB Q06187', 'IC50', '7.94 nM'),
  ('NC(=O)c1nnc2c(-c3ccc4nc(-c5cccs5)[nH]c4c3)cccc2c1N [Example 79]', 'UniProtKB Q06187', 'IC50', '316 nM'),
  ('COc1ccc2c(N)c(C(N)=O)nnc2c1-c1ccc2[nH]ncc2c1 [Example 51]', 'UniProtKB Q06187', 'IC50', '12.6 nM');

Please report the recorded IC50 for Cc1ccc2c(N)c(C(N)=O)nnc2c1-c1cc(C)c2[nH]ncc2c1 [Example 33] .
50.1 nM

GET /values?readout=IC50&item= Cc1ccc2c(N)c(C(N)=O)nnc2c1-c1ccc2cn(C)nc2c1 [Example 52]
2510 nM

Consider the compound shown here: NC(=O)c1nnc2c(-c3ccc4nc(-c5ccc(F)cc5F)[nH]c4c3)cccc2c1N [Example 118] What is its recorded IC50?
100 nM

Name the reported IC50 value associated with the compound NC(=O)c1nnc2c(-c3ccc4nc(NCC5CC5)[nH]c4c3)cccc2c1N [Example 65]
63.1 nM

Any idea what IC50 was measured for COc1cc2[nH]ncc2cc1-c1ccc(F)c2c(N)c(C(N)=O)nnc12 [Example 109] ?
2 nM

Bench note: what IC50 did NC(=O)c1nnc2c(-c3ccc4nc(-c5cccc(C(F)(F)F)c5)[nH]c4c3)cccc2c1N [Example 71] show?
316 nM

IC50 for Cc1ccc2c(N)c(C(N)=O)nnc2c1-c1ccc2cnccc2c1 [Example 58] ?
50.1 nM

Can you look up the measured IC50 of Cc1ccc2c(N)c(C(N)=O)nnc2c1-c1ccc2cn[nH]c2c1F [Example 104] for me?
31.6 nM

Given CC(C)n1cnc2cc(-c3cccc4c(N)c(C(N)=O)nnc34)ccc21 [Example 17] , state its recorded IC50.
50100 nM

Need IC50, item NC(=O)c1nnc2c(N3CCc4[nH]ncc4C3)cccc2c1N [Example 86]
2000 nM

For the compound shown here, NC(=O)c1nnc2c(-c3ccc4c(c3)ncn4C3CCCCC3)cccc2c1N [Example 18] , give the reported IC50.
1260 nM

What value of IC50 has been recorded for this entry: Cc1cc2cn[nH]c2cc1-c1cc(N2CCC(O)CC2)cc2c(N)c(C(N)=O)nnc12 [Example 138]
12.6 nM

Value lookup for IC50; key = Cc1ccc2c(N)c(C(N)=O)nnc2c1-c1ccc2c(cnn2C)c1 [Example 25]
31.6 nM

Entry under review: N#Cc1ccc2c(N)c(C(N)=O)nnc2c1-c1ccc2cn[nH]c2c1 [Example 135] . Reported IC50?
126 nM

Look up IC50 for this compound: CC(C)(C)n1cnc2cc(-c3cccc4c(N)c(C(N)=O)nnc34)ccc21 [Example 19]
15800 nM

IC50 for Cc1ccc2c(N)c(C(N)=O)nnc2c1-c1ccc2nc(-c3ccc(F)cc3)[nH]c2c1 [Example 120] ?
25.1 nM

If you can, please state the reported IC50 value of NC(=O)c1nnc2c(-c3ccc4nc(-c5cccc(Cl)c5)[nH]c4c3)cccc2c1N [Example 76] .
126 nM

###

# system.under.test: UniProtKB Q06187
Entries and their IC50 values follow.
I only need the number, in nM, no unit after it.

INSERT INTO measurements (chem_smiles, numeric_value) VALUES
  ('NC(=O)c1nnc2c(-c3ccc4nc(C5CCCCC5)[nH]c4c3)cccc2c1N', 158),
  ('Cc1ccc2c(N)c(C(N)=O)nnc2c1-c1ccc2ncn(CCC#N)c2c1', 501),
  ('NC(=O)c1nnc2c(-c3ccc4nc(Cc5ccccc5)[nH]c4c3)cccc2c1N', 631),
  ('Cc1ccc2c(N)c(C(N)=O)nnc2c1-c1ccc2cnn(C)c2c1', 100);

Consider the compound Cc1ccc2c(N)c(C(N)=O)nnc2c1-c1cnc2cc[nH]c2c1 and give its measured IC50.
126

###

So I've got pIC50 readings for UniProt:Q06187, take a look.
Answer as the number alone; pIC50 is minus log10 of concentration in mol/L.

Would you please look over these solved cases?
INSERT INTO assay_data (chem_smiles, numeric_value) VALUES
  ('Cc1ccc2c(N)c(C(N)=O)nnc2c1-c1ccc2nc[nH]c2c1', 7.80),
  ('CN1Cc2cc(-c3cccc4c(N)c(C(N)=O)nnc34)ccc2C1=O', 6.70),
  ('Cn1ccc2ccc(-c3cccc4c(N)c(C(N)=O)nnc34)cc21', 6.00),
  ('NC(=O)c1nnc2c(-c3ccc4nc(-c5cc(Cl)cc(Cl)c5)[nH]c4c3)cccc2c1N', 7.20),
  ('Cc1ccc2c(N)c(C(N)=O)nnc2c1-c1ccc2c(c1)CN(CCC(C)(C)O)C2=O', 8.10);

Which measured pIC50 value corresponds to NC(=O)c1nnc2c(-c3ccc4nc(-c5cn6ccccc6n5)[nH]c4c3)cccc2c1N ?
6.90

For the molecule shown here, NC(=O)c1nnc2c(-c3ccc4nc[nH]c4c3)cccc2c1N , give the reported pIC50.
7.10

Quick one: pIC50 of NC(=O)c1nnc2c(-c3ccc4nc(CCc5ccccc5)[nH]c4c3)cccc2c1N ?
7.50

So what does the record say about pIC50 for Cc1cc2cn[nH]c2cc1-c1cc(N2CCOCC2)cc2c(N)c(C(N)=O)nnc12 ?
8.10

###

pIC50, human BTK (Homo sapiens): measured values
pIC50 here is simply -log10 of the concentration when that concentration is written in mol/L.

INSERT INTO measurements (molecule, system_under_test, numeric_value) VALUES
  ('NC(=O)c1nnc2c(-c3ccc4nc(-c5ccc(F)cc5)[nH]c4c3)cccc2c1N [Example 116]', 'human BTK (Homo sapiens)', 7.40),
  ('NC(=O)c1nnc2c(-c3ccc4nc(NCc5ccccc5)[nH]c4c3)cccc2c1N [Example 90]', 'human BTK (Homo sapiens)', 7.80),
  ('Cc1c(-c2cccc3c(N)c(C(N)=O)nnc23)ccc2[nH]ncc12 [Example 31]', 'human BTK (Homo sapiens)', 7.40);

Now turn to the next molecule.
Item: Cn1ncc2cc(-c3cccc4c(N)c(C(N)=O)nnc34)ccc21 [Example 2] Test system: human BTK (Homo sapiens) Read-out: pIC50 Value: ?
6.80
